The following compounds are listed with their measured IC50 values.
- System: HFF
- assay-text: Visual cytotoxicity against stationary human foreskin fibroblasts (HFF) cells at the time of HCMV plaque enumeration
- Format: functional, cell-based
Give the number; µM is assumed, so skip it.

Before answering, review these 2 worked examples.
- compound: "OC[C@H]1OC(n2c(SCc3ccccc3)nc3nc4cc(Cl)c(Cl)cc4cc32)[C@H](O)[C@@H]1O (stereo not given in full)"
  target-desc: "HFF"
  test-value: 20
- compound: "CC(C)Nc1nc2cc3cc(Cl)c(Cl)cc3nc2n1C1O[C@H](CO)[C@@H](O)[C@H]1O (stereo not given in full)"
  target-desc: "HFF"
  test-value: 32

Lab note: next compound to report on.
Look up IC50 for this compound: OC[C@H]1OC(n2c(Cl)nc3nc4cc(Cl)c(Cl)cc4cc32)[C@H](O)[C@@H]1O (stereo not given in full)
21
